B1: Zinc finger homeobox protein 4, residues 2183 to 2238; numbered along this chain, Q86UP3 (parent)
chain: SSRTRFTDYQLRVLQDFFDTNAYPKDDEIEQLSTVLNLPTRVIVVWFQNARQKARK

variants of: B1; test: abundance fitness (aPCA) (normalised: wild type 0, dead -1); higher = more abundant; growth selection in yeast, the domain comes from the species named; settings: Homo sapiens
We use -0.3 as the dividing line for abundance fitness: on or above the line is T, below is F.

These recorded examples may help you get a feel for the data.
mutation_descriptor=T20P class_name=F
mutation_descriptor=R12Q class_name=T
mutation_descriptor=T34R class_name=T
mutation_descriptor=F6D class_name=T
mutation_descriptor=Q15Y class_name=T

Please check the record `S33G` and state if its abundance fitness is at or above -0.3.
T

abundance fitness >= -0.3 for `T34F` ?
T

Assess whether reported abundance fitness for `I29R` sits at -0.3 or higher.
F

Exam item: decide whether the reported abundance fitness for `V35R` is at least -0.3.
T

Dear colleague, could you confirm whether `S2L` has abundance fitness at or above -0.3?
T

Is abundance fitness at least -0.3? Consider `S2A`
F

# check: abundance fitness of `Y9E` is greater than or equal to -0.3
T
